Record: log10 MIC reported on Streptococcus faecium ATCC 10541.
PROPERTY MEASURED: log10 MIC (log10 of the value in µg/mL)

* CCSCC1=C(N)C(=O)C2=C(C1=O)N1CC3NC3C1(OC)C2COC(N)=O (stereo not drawn) [Compound 11, 6-Demethyl-6-ethylthiomethylmitomycin C] | -0.51
* COC(=O)CCSCC1=C(N)C(=O)C2=C(C1=O)N1CC3NC3C1(OC)C2COC(N)=O (stereo not drawn) [Compound 12] | -0.20
* COC12C(COC(N)=O)C3=C(C(=O)C(CSc4ccccc4)=C(N)C3=O)N1CC1NC12 (stereo not drawn) [Compound 17, 6-Demethyl-6-phenylthiomethylmitomycin C] | -0.51
* CCCCCCCCCCCCSCC1=C(N)C(=O)C2=C(C1=O)N1CC3NC3C1(OC)C2COC(N)=O (stereo not drawn) [Compound 14] | -0.41
* COCC1=C(N)C(=O)C2=C(C1=O)N1CC3C(N3C)C1(OC)C2COC(N)=O (stereo not drawn) [Compound 1, 6-Demethyl-6-methoxymethylporfiromycin] | -0.20
* COC12C(COC(N)=O)C3=C(C(=O)C4=C(NCCSC4)C3=O)N1CC1NC12 (stereo not drawn) [Compound 20] | 0.70
* COC12C(COC(N)=O)C3=C(C(=O)C(CSCc4ccccc4)=C(N)C3=O)N1CC1NC12 (stereo not drawn) [Compound 18, 6-Demethyl-6-benzylthiomethylmitomycin C] | -1.41
* COC12C(COC(N)=O)C3=C(C(=O)C(CSC(C)C)=C(N)C3=O)N1CC1NC12 (stereo not drawn) [Compound 16] | -1.11
* COCC1=C(OC)C(=O)C2=C(C1=O)N1CC3NC3C1(OC)C2COC(N)=O (stereo not drawn) [Compound 4, 6-Demethyl-6-methoxymethylmitomycin A] | 1.00
* COCC1=C(N)C(=O)C2=C(C1=O)N1CC3NC3C1(OC)C2COC(N)=O (stereo not drawn) [Compound 2, 6-Demethyl-6-methoxymethylmitomycin C] | 0.11
* COC12C(COC(N)=O)C3=C(C(=O)C(CSCCO)=C(N)C3=O)N1CC1NC12 (stereo not drawn) [Compound 13] | 1.00
* COC12C(COC(N)=O)C3=C(C(=O)C(CO)=C(N)C3=O)N1CC1NC12 (stereo not drawn) [Compound 10, 6-Demethyl-6-hydroxymethylmitomycin C] | 1.00
* COC12C(COC(N)=O)C3=C(C(=O)C(COCc4ccccc4)=C(N)C3=O)N1CC1NC12 (stereo not drawn) [Compound 7, 6-Demethyl-6-benzyloxymethylmitomycin C] | -0.80
* CCCCOCC1=C(N)C(=O)C2=C(C1=O)N1CC3NC3C1(OC)C2COC(N)=O (stereo not drawn) [Compound 6, 6-Demethyl-6-n-butoxymethylmitomycin C] | -0.51
* COC12C(COC(N)=O)C3=C(C(=O)C(COC(C)C)=C(N)C3=O)N1CC1NC12 (stereo not drawn) [Compound 8, 6-Demethyl-6-isopropoxymethylmitomycin C] | -0.51
